Answer each item with its documented Plant response rating, Morningglory.
System: morningglory
assayText: Test A postemergence
Type: in vivo, Ipomoea spp.
assayContext: 500 g ai/ha, 0 to 100 scale, 0 no effect, 100 complete control
In your answer, state the number alone without any accompanying words.

Asked: Recall and state the measured Plant response rating, Morningglory for Fc1cnc(Oc2ccccc2-n2cc(C(F)(F)F)cn2)nc1 .
Given back: 100

Asked: Recall and state the measured Plant response rating, Morningglory for Cc1cccc(Oc2ncc(Br)cn2)c1-n1cc(Br)cn1 .
Given back: 20

Asked: Recall and state the measured Plant response rating, Morningglory for COc1ccc(Oc2ncc(Br)cn2)c(-n2cc(Br)cn2)c1 .
Given back: 50

Asked: Recall and state the measured Plant response rating, Morningglory for Cc1cccc(Oc2ncc(Cl)cn2)c1-n1cc(Br)cn1 .
Given back: 60
